- EXPERIMENTAL PROTOCOL: soluble on expression in E. coli; label from the status in PepcDB or PDB records
MEASURED QUANTITY: soluble on expression in E. coli

{"SEQ STRING": "AVKRRPRFPVNSNSNGGNELCPKIRIGQDDLPGFDLISQFQVDKAASRRAIQRVVGSATLQVAYKLGNNVDFRIPTRNLYPSGLPEEYSFLTTFRMTGSTLKKNWNIWQIQDSSGKEQVGIKINGQTQSVVFSYKGLDGSLQTAAFSNLSSLFDSQWHKIMIGVERSSATLFVDCNRIESLPIKPRGPIDIDGFAVLGKLADNPQVSVPFELQWMLIHCDPLRPRRETCHELPARITPSQTTDER", "soluble on expression in E. coli": "soluble"}
{"SEQ STRING": "MKRLLLLGGIGEALALARRLGPAHLYSLAGLGKVPGDLACRVRVGGYGGAEGLAAFIDEQGFDLLVDATHPYAARISQNAVRAARLAGVPCWALRRPGWQAGPGDDWREVADWRELIAALTPFRRPLFTLGREPLEHLGQVPPHQHWTVRCLQGQPAAPRAEVIGARGPFSLDGERALFERLACDVLVSKNSGSQATEPKLQVAREMGLPVLVLARPALPPADREFADGEALLTAIRDWESA", "soluble on expression in E. coli": "not soluble"}
{"SEQ STRING": "MIKMIVVLRLGHRPERDKRVTTHVALTARAFGADGIIIASEEDEKVKESVEDVVKRWGGPFFIEFNRNWRKVMKEFTGVKVHLTMYGLHVDDVIEELKEKLKKGEDFMIIVGAEKVPREVYELADYNVAIGNQPHSEVAALAVLLDRLLEGKGLKKEFKGAKIKIVPQARGKKVVEVQGYAEQDKAEGKATPGKNWENSGFTGDNP", "soluble on expression in E. coli": "soluble"}
{"SEQ STRING": "MEKLNRAADDSMINTLSEKSNEFSFYQAVLLLEKHYQFEPNSNFVAVGENKYFHQERIEFSVSPNLCFPKSDMEFIVHMERNGQQYSRVETNFLGLHGSSSPLPVSYTEKLTGREPDDNPVKDFFDFFHNRYTSLLYRVWKKYRYHVQYQSGATDAFSGRMLHLAGLSGVMQDCGVAELDRAKVLSYVNQLSTRTRSPKLISGIVSHYFSLPSVRIEEWVYRRVEIADSQRNKLNRANCILGQSFHLGQSIADLNGKFNLCIDDIDFETFKQFSYEGELHKTLVGLMRFILRDPMSWDLKLTVNLDSIPNNQLGNGEGNNLGQTFWLGNPTDEDVKIRVIGSI", "soluble on expression in E. coli": "not soluble"}

Looking up MGSDKIHHHHHHLDDLSEFVDQVPLLDHHCHFLIDGKVPNRDDRLAQVSTEADKDYPLADTKNRLAYHGFLALAKEFALDANNPLAAMNDPGYATYNHRIFGHFHFKELLIDTGFVPDDPILDLDQTAELVGIPVKAIYRLETHAEDFMLEHDNFAAWWQAFSNDVKQAKAHGFVGFKSIAAYRVGLHLEPVNVIEAAAGFDTWKHSGEKRLTSKPLIDYMLYHVAPFIIAQDMPLQFHVGYGDADTDMYLGNPLLMRDYLKAFTKKGLKVVLLHCYPYHREAGYLASVFPNLYFDISLLDNLGPSGASRVFNEAVELAPYTRILFASDASTYPEMYGLAARQFKQALVAHFNQLPFVDLAQKKAWINAICWQTSAKLYHQERELRV , I see its soluble on expression in E. coli listed as not soluble
